Target: GST-Ap-NF-kB RHD (Exaiptasia pallida (Aiptasia), UniProt A0A913YAJ5 2-422)
Sequence: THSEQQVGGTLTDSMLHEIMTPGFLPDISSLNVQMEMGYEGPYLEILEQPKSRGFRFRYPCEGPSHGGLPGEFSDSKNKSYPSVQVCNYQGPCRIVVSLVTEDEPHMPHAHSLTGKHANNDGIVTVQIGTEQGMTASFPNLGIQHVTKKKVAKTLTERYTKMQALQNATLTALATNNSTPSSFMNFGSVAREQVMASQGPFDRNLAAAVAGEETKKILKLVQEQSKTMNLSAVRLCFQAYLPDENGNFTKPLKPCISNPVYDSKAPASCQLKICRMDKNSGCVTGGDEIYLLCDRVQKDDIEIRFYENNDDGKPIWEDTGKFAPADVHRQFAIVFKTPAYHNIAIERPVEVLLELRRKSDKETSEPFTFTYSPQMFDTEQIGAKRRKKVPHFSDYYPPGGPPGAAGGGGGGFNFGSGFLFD
Assay: protein-binding microarray (PBM); PBM: ~300 nM protein, 6 mM HEPES pH 7.8, 80 mM KCl, 0.5 mM EDTA, 0.5 mM EGTA, 6% glycerol, 35 ng/ul poly-dIdC, 1% milk, 1 h, room temperature; high values mean tight binding
Conditions: dsDNA, one strand shown
The entries below come with measured binding signal values attached.

[
  {
    "Sequence code": "CCGATTAACATCAAAACACCCCCTGATGTTAATCGGGTCTTGATTCGCTTGACGCTGCTG",
    "binding signal, z-score": 6.39
  },
  {
    "Sequence code": "CCGATTAACATCAAAACTTCCCATGATGTTAATCGGGTCTTGATTCGCTTGACGCTGCTG",
    "binding signal, z-score": 3.04
  },
  {
    "Sequence code": "CCGATTAACATCAAGGGGAGTCCTGATGTTAATCGGGTCTTGATTCGCTTGACGCTGCTG",
    "binding signal, z-score": 6.71
  },
  {
    "Sequence code": "CCGATTAACATCACGGGAAGCCCTGATGTTAATCGGGTCTTGATTCGCTTGACGCTGCTG",
    "binding signal, z-score": 2.49
  },
  {
    "Sequence code": "CCGATTAACATCAGACAATCCCCTGATGTTAATCGGGTCTTGATTCGCTTGACGCTGCTG",
    "binding signal, z-score": 6.6
  },
  {
    "Sequence code": "CCGATTAACATCAGATCTTCCCCTGATGTTAATCGGGTCTTGATTCGCTTGACGCTGCTG",
    "binding signal, z-score": 4.63
  },
  {
    "Sequence code": "CCGATTAACATCAAACACTCCCCTGATGTTAATCGGGTCTTGATTCGCTTGACGCTGCTG",
    "binding signal, z-score": 4.43
  },
  {
    "Sequence code": "CCGATTAACATCAAGGGGAATCCTGATGTTAATCGGGTCTTGATTCGCTTGACGCTGCTG",
    "binding signal, z-score": 9.67
  },
  {
    "Sequence code": "CCGATTAACATCAGATATTTCCCTGATGTTAATCGGGTCTTGATTCGCTTGACGCTGCTG",
    "binding signal, z-score": 3.25
  }
]

* * *

Molecular target: GST-Nv-NF-kB (Cys allele) (Nematostella vectensis, UniProt E5G601 2-411)
Sequence: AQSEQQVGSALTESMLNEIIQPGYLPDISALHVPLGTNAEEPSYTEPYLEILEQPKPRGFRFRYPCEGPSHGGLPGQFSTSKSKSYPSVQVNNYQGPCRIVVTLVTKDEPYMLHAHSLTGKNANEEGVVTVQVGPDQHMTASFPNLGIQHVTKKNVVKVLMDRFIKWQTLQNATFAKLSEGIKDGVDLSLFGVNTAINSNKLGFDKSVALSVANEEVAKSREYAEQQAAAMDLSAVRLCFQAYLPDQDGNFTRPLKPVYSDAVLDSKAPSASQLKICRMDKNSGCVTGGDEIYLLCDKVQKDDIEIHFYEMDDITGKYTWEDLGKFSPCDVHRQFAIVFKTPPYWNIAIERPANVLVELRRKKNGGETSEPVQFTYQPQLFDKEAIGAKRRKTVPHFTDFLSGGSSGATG
Assay: protein-binding microarray (PBM); PBM: ~300 nM protein, 6 mM HEPES pH 7.8, 80 mM KCl, 0.5 mM EDTA, 0.5 mM EGTA, 6% glycerol, 35 ng/ul poly-dIdC, 1% milk, 1 h, room temperature; Ap Aiptasia and Nv Nematostella (sea anemones) / Co Capsaspora / Aq Amphimedon (sponge) / Dm Drosophila / Hu human; RHD is the Rel homology domain; high values mean tight binding
Settings: dsDNA, one strand shown
# maps each entry to its binding signal

[
  {
    "Sequence code": "CCGATTAACATCAAACTTCCCCTTGATGTTAATCGGGTCTTGATTCGCTTGACGCTGCTG",
    "Target system": "GST-Nv-NF-kB (Cys allele) (Nematostella vectensis, UniProt E5G601 2-411)",
    "binding signal (z-score)": 9.28
  },
  {
    "Sequence code": "CCGATTAACATCACGGGGGGGAATGATGTTAATCGGGTCTTGATTCGCTTGACGCTGCTG",
    "Target system": "GST-Nv-NF-kB (Cys allele) (Nematostella vectensis, UniProt E5G601 2-411)",
    "binding signal (z-score)": 5.54
  },
  {
    "Sequence code": "CCGATTAACATCACTAATTTCCCTGATGTTAATCGGGTCTTGATTCGCTTGACGCTGCTG",
    "Target system": "GST-Nv-NF-kB (Cys allele) (Nematostella vectensis, UniProt E5G601 2-411)",
    "binding signal (z-score)": 4.55
  },
  {
    "Sequence code": "CCGATTAACATCAGGGGATGTGCTGATGTTAATCGGGTCTTGATTCGCTTGACGCTGCTG",
    "Target system": "GST-Nv-NF-kB (Cys allele) (Nematostella vectensis, UniProt E5G601 2-411)",
    "binding signal (z-score)": 3.45
  },
  {
    "Sequence code": "CCGATTAACATCAGGAATGCCCCTGATGTTAATCGGGTCTTGATTCGCTTGACGCTGCTG",
    "Target system": "GST-Nv-NF-kB (Cys allele) (Nematostella vectensis, UniProt E5G601 2-411)",
    "binding signal (z-score)": 6.58
  },
  {
    "Sequence code": "CCGATTAACATCAGGGGGTTGCATGATGTTAATCGGGTCTTGATTCGCTTGACGCTGCTG",
    "Target system": "GST-Nv-NF-kB (Cys allele) (Nematostella vectensis, UniProt E5G601 2-411)",
    "binding signal (z-score)": 3.67
  },
  {
    "Sequence code": "CCGATTAACATCAAAAAATCCCGTGATGTTAATCGGGTCTTGATTCGCTTGACGCTGCTG",
    "Target system": "GST-Nv-NF-kB (Cys allele) (Nematostella vectensis, UniProt E5G601 2-411)",
    "binding signal (z-score)": 6.22
  },
  {
    "Sequence code": "CCGATTAACATCAAGGAAATCCCTGATGTTAATCGGGTCTTGATTCGCTTGACGCTGCTG",
    "Target system": "GST-Nv-NF-kB (Cys allele) (Nematostella vectensis, UniProt E5G601 2-411)",
    "binding signal (z-score)": 4.91
  },
  {
    "Sequence code": "CCGATTAACATCAAAAAGACCCCTGATGTTAATCGGGTCTTGATTCGCTTGACGCTGCTG",
    "Target system": "GST-Nv-NF-kB (Cys allele) (Nematostella vectensis, UniProt E5G601 2-411)",
    "binding signal (z-score)": 4.44
  },
  {
    "Sequence code": "CCGATTAACATCAGGGGGGGTTATGATGTTAATCGGGTCTTGATTCGCTTGACGCTGCTG",
    "Target system": "GST-Nv-NF-kB (Cys allele) (Nematostella vectensis, UniProt E5G601 2-411)",
    "binding signal (z-score)": 3.92
  },
  {
    "Sequence code": "CCGATTAACATCAAATAAATCCCTGATGTTAATCGGGTCTTGATTCGCTTGACGCTGCTG",
    "Target system": "GST-Nv-NF-kB (Cys allele) (Nematostella vectensis, UniProt E5G601 2-411)",
    "binding signal (z-score)": 4.02
  },
  {
    "Sequence code": "CCGATTAACATCAAATCTCCCCCTGATGTTAATCGGGTCTTGATTCGCTTGACGCTGCTG",
    "Target system": "GST-Nv-NF-kB (Cys allele) (Nematostella vectensis, UniProt E5G601 2-411)",
    "binding signal (z-score)": 6.08
  },
  {
    "Sequence code": "CCGATTAACATCAAGTTTTCCCCTGATGTTAATCGGGTCTTGATTCGCTTGACGCTGCTG",
    "Target system": "GST-Nv-NF-kB (Cys allele) (Nematostella vectensis, UniProt E5G601 2-411)",
    "binding signal (z-score)": 8.76
  },
  {
    "Sequence code": "CCGATTAACATCACTGGGATTTCTGATGTTAATCGGGTCTTGATTCGCTTGACGCTGCTG",
    "Target system": "GST-Nv-NF-kB (Cys allele) (Nematostella vectensis, UniProt E5G601 2-411)",
    "binding signal (z-score)": 1.96
  },
  {
    "Sequence code": "CCGATTAACATCAGGTAATTTACTGATGTTAATCGGGTCTTGATTCGCTTGACGCTGCTG",
    "Target system": "GST-Nv-NF-kB (Cys allele) (Nematostella vectensis, UniProt E5G601 2-411)",
    "binding signal (z-score)": 1.68
  },
  {
    "Sequence code": "CCGATTAACATCAGACTTTTCCCTGATGTTAATCGGGTCTTGATTCGCTTGACGCTGCTG",
    "Target system": "GST-Nv-NF-kB (Cys allele) (Nematostella vectensis, UniProt E5G601 2-411)",
    "binding signal (z-score)": 4.94
  },
  {
    "Sequence code": "CCGATTAACATCAACCCCGTTTCTGATGTTAATCGGGTCTTGATTCGCTTGACGCTGCTG",
    "Target system": "GST-Nv-NF-kB (Cys allele) (Nematostella vectensis, UniProt E5G601 2-411)",
    "binding signal (z-score)": 1.29
  },
  {
    "Sequence code": "CCGATTAACATCAAGGTATTTCCTGATGTTAATCGGGTCTTGATTCGCTTGACGCTGCTG",
    "Target system": "GST-Nv-NF-kB (Cys allele) (Nematostella vectensis, UniProt E5G601 2-411)",
    "binding signal (z-score)": 1.66
  }
]
